Target: BACE1 (Homo sapiens)
Assay: In Vitro BACE Cell-based Assay (HEK cell assay): Aβ40 in conditioned medium of cells stably expressing Amyloid Precursor Protein, sandwich ELISA
Conditions: read-out: HEK cell assay
pIC50: −log10 of the molar value.
// values below are reported pIC50

- COc1ccc2c(c1)[C@@]1(COC(N)=N1)c1cc(Br)cnc1O2 [compound 680]: < 5.30
- CC(C)(C)COc1ccc2c(c1)[C@]1(COC(N)=N1)c1cc(-c3cnc4ccccn34)ccc1O2 [compound 975]: 6.00 to 7.00
- NC1=N[C@]2(CO1)c1cc(OC3COC3)ccc1Oc1ccc(-c3cccnc3)cc12 [compound 777]: 6.00 to 7.00

Below: the item to evaluate.
Req: Give a short answer stating reported pIC50 for CC(C)(C)OC(=O)/C=C/c1ccc2c(c1)[C@]1(COC(N)=N1)c1cc(Br)ccc1O2 [compound 996] .
Resp: < 5.30

###

// values below are reported IC50
Target: BACE1 (Homo sapiens, UniProt P56817)
Sequence (P56817 46-501, species assumed): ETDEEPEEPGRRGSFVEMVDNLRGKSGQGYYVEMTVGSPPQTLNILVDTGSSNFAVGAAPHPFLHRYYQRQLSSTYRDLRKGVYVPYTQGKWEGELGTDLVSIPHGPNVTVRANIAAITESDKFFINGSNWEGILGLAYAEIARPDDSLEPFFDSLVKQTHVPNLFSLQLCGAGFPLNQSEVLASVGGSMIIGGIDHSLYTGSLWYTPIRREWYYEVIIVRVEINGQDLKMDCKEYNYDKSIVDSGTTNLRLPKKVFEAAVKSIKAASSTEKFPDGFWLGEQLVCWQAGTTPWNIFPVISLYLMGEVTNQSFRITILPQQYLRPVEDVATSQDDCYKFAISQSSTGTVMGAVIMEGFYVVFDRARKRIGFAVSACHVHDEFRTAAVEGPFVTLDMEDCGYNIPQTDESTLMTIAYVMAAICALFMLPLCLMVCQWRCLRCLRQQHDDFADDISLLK
Test: In Vitro BACE Cell-based Assay (HEK cell assay): Aβ40 in conditioned medium of cells stably expressing Amyloid Precursor Protein, sandwich ELISA
Conditions: Table III; IC50's in uM ranges; read-out: HEK cell assay

Req: Give a short answer stating reported IC50 for COc1ccc2c(c1)[C@]1(COC(N)=N1)c1cc(-c3cncnc3)cc(F)c1O2 [152a] .
Resp: 1 to 5 µM

###

Molecular target: BACE1 (Homo sapiens)
Assay: In Vitro Enzymatic BACE FRET (Fluorescence Resonance Energy Transfer) Assay
Type: biochemical
Conditions: Table IV, class symbols; read-out: BACE1 FRET assay
Description: In Vitro Enzymatic BACE FRET (Fluorescence Resonance Energy Transfer) Assay (Enzyme Assay Data in the Example Tables I, II, III & IV) The assay buffer used in this screen is 0.05 M acetate, pH 4.2, 10% DMSO final, 100 uM genapol (which is a nonionic detergent, below its Critical Micelle Concentration). […] The FRET assay is terminated with by addition of Tris buffer, which raises the pH to neutrality, and the fluorescence is determined. […]
pIC50: −log10 of the molar value.
OBSERVATION_TYPE: pIC50

Below, 2 compounds whose answers are already recorded.
- CC(C)(C)COc1ccc2c(c1)[C@@]1(COC(N)=N1)c1cc(-c3ccncc3)cnc1O2: > 7.00
- COC(=O)c1ccc2c(c1)[C@@]1(COC(N)=N1)c1cc(OCC(C)(C)C)ccc1O2 [compound 850]: 6.00 to 7.00

Req: Give a short answer stating reported pIC50 for NC1=N[C@@]2(CO1)c1cc(-c3cccnc3)ccc1Oc1ccc(N3CCCC3=O)cc12 .
Resp: > 7.00

###

Target: BACE1 (Homo sapiens, UniProt P56817)
Test: In Vitro Enzymatic BACE FRET (Fluorescence Resonance Energy Transfer) Assay
Format: biochemical
Settings: read-out: BACE1 FRET assay
// values below are reported IC50

Below, 3 compounds whose answers are already recorded.
• NC1=NC2(CO1)c1cc(C3=CCOCC3)ccc1Oc1ccc(C3=CCOCC3)cc12 = 100 to 1000 nM
• NC1=N[C@@]2(CO1)c1cc(-c3cccnc3)ccc1Oc1ncc(C3=CCOCC3)cc12 = < 100 nM
• N#Cc1ccccc1Oc1ccc2c(c1)[C@]1(COC(N)=N1)c1cc(-c3cccnc3)ccc1O2 = 100 to 1000 nM

Req: Give a short answer stating reported IC50 for CC(C)(C)COc1ccc2c(c1)[C@@]1(COC(N)=N1)c1cc(-c3ccc(OCC4CC4)nc3)cnc1O2 .
Resp: < 100 nM

Req: Give a short answer stating reported IC50 for CC(C)(C)CCc1cnc2c(c1)[C@]1(COC(N)=N1)c1cc(-c3cncnc3)ccc1O2 .
Resp: < 100 nM

Req: Give a short answer stating reported IC50 for CCC(C)(O)COc1ccc2c(c1)[C@]1(COC(N)=N1)c1cc(-c3cccnc3)ccc1O2 (stereo partly shown) .
Resp: < 100 nM

Req: Give a short answer stating reported IC50 for CC(C)(C)OC(=O)/C=C/c1ccc2c(c1)[C@]1(COC(N)=N1)c1cc(-c3cncnc3)ccc1O2 .
Resp: 100 to 1000 nM

Req: Give a short answer stating reported IC50 for CC1(C#Cc2cnc3c(c2)[C@]2(COC(N)=N2)c2cc(-c4cc(Cl)ccc4F)ccc2O3)COC1 .
Resp: < 100 nM

Req: Give a short answer stating reported IC50 for NC1=N[C@]2(CO1)c1cc(OC3COC3)ccc1Oc1ccc(-c3cccnc3)cc12 .
Resp: 100 to 1000 nM

Req: Give a short answer stating reported IC50 for NC1=N[C@@]2(CO1)c1cc(-c3cncnc3)ccc1Oc1cc(OCC(F)(F)F)c(F)cc12 .
Resp: > 5000 nM

Req: Give a short answer stating reported IC50 for COc1ccc2c(c1)[C@@]1(COC(N)=N1)c1cc(-c3cncnc3)cnc1O2 .
Resp: 1000 to 5000 nM

Req: Give a short answer stating reported IC50 for CC1(C)CN(c2cc3c(cn2)Oc2ccc(-c4cccnc4)cc2[C@@]32COC(N)=N2)CCO1 .
Resp: < 100 nM

Req: Give a short answer stating reported IC50 for NC1=NC2(CO1)c1cnc(Cl)cc1Oc1ccc(-c3cccnc3)cc12 (stereo not shown) .
Resp: 1000 to 5000 nM

###

Molecular target: BACE1 (Homo sapiens, UniProt P56817)
Assay: In Vitro Enzymatic BACE FRET (Fluorescence Resonance Energy Transfer) Assay
Assay type: biochemical
Conditions: Table IV, class symbols; read-out: BACE1 FRET assay
OBSERVATION_TYPE: IC50

Below, 2 compounds whose answers are already recorded.
* CC(C)(C)C#Cc1cnc2c(c1)[C@]1(COC(N)=N1)c1cc(-c3cncnc3)cc(F)c1O2 | < 0.1 µM
* NC1=N[C@@]2(CO1)c1ccccc1Oc1ccc(-c3cc(F)cnc3Cl)cc12 | 1 to 5 µM

Req: Give a short answer stating reported IC50 for CC(C)(C)COc1ccc2c(c1)[C@]1(COC(N)=N1)c1cc(C(=O)O)ccc1O2 .
Resp: 1 to 5 µM

###

Target: UniProt P56817
Test: In Vitro Enzymatic BACE FRET (Fluorescence Resonance Energy Transfer) Assay
Type: biochemical
Details: Table 1; read-out: BACE1 FRET assay
// values below are reported IC50

Below, 3 compounds whose answers are already recorded.
* NC1=NC2(CO1)c1cc(Cl)ccc1Oc1ccc(-c3cncnc3)cc12 (stereo not shown) | 0.1 to 1 µM
* Cc1ccc2c(c1)Oc1ccc(-c3ccccc3C)cc1C21COC(N)=N1 (stereo not shown) | > 5 µM
* COc1ccc2c(c1)C1(COC(N)=N1)c1cc(-c3cccnc3F)ccc1O2 (stereo not shown) | 1 to 5 µM

Below: the item to evaluate.
Req: Give a short answer stating reported IC50 for COc1ccc(F)c(-c2ccc3c(c2)C2(COC(N)=N2)c2cc(OC)ccc2O3)c1 (stereo not shown) .
Resp: 1 to 5 µM

###

Molecular target: BACE1 (Homo sapiens, UniProt P56817)
Assay: In Vitro Enzymatic BACE FRET (Fluorescence Resonance Energy Transfer) Assay
Assay type: biochemical
Conditions: Table IV, class symbols; read-out: BACE1 FRET assay
pIC50: −log10 of the molar value.
// values below are reported pIC50

Below, 2 compounds whose answers are already recorded.
* COC(=O)/C=C/c1ccc2c(c1)[C@@]1(COC(N)=N1)c1cc(-c3cccnc3)ccc1O2 | 6.00 to 7.00
* CC(C)(C)COc1ccc2c(c1)[C@]1(COC(N)=N1)c1cc(C(=O)N3CCCCC3)ccc1O2 | 6.00 to 7.00

Below: the item to evaluate.
Req: Please tell me the measured pIC50 for COC(C)(C)C#Cc1cnc2c(c1)[C@]1(COC(N)=N1)c1cc(-c3cccnc3)ccc1O2 ; system: BACE1 (Homo sapiens, UniProt P56817).
Resp: > 7.00

###

Biological target: BACE1 (Homo sapiens)
Experiment: In Vitro Enzymatic BACE FRET (Fluorescence Resonance Energy Transfer) Assay
Assay type: biochemical
Conditions: in vitro BACE FRET enzyme assay, IC50 class symbols; read-out: BACE1 FRET assay
// values below are reported IC50

Below, 2 molecules whose answers are already recorded.
- CC(C)OC1CN(c2ccc3c(c2)[C@]2(COC(N)=N2)c2cc(-c4cccnc4)ccc2O3)C1: < 100 nM
- NC1=N[C@@]2(CO1)c1cc(-c3cccnc3)ccc1Oc1cnc(N3CCN(CC(=O)O)CC3)cc12: < 100 nM

Below: the item to evaluate.
Req: Please tell me the measured IC50 for Cn1cc(-c2cc3c(cn2)Oc2ccc(-c4cccc(Cl)c4)cc2[C@@]32COC(N)=N2)cn1 ; system: BACE1 (Homo sapiens).
Resp: < 100 nM

###

Molecular target: UniProt P56817
Assay: In Vitro Enzymatic BACE FRET (Fluorescence Resonance Energy Transfer) Assay
Format: biochemical
Details: Table IV, class symbols; read-out: BACE1 FRET assay
pIC50: −log10 of the molar value.
// values below are reported pIC50

* CC(C)(C)COc1ccc2c(c1)[C@]1(COC(N)=N1)c1cc(-c3ncccn3)ccc1O2 | 6.00 to 7.00
* COc1ccc2c(c1)[C@]1(COC(N)=N1)c1cc(-c3cnc4ccccc4c3)ccc1O2 | 5.30 to 6.00
* COC(C)(C)COc1cc2c(cc1F)Oc1ccc(-c3cccnc3)cc1[C@@]21COC(N)=N1 | > 7.00
* COC(C)(C)C#Cc1cnc2c(c1)[C@]1(COC(N)=N1)c1cc(-c3cncnc3)ccc1O2 | > 7.00
* CC(C)(C)COc1ccc2c(c1)[C@]1(COC(N)=N1)c1cc(N3CCCCC3)ccc1O2 | 6.00 to 7.00
* NC1=N[C@@]2(CO1)c1cc(C(=O)N3CCCC3)ccc1Oc1ccc(-c3cccnc3)cc12 | 6.00 to 7.00
* NC1=N[C@]2(CO1)c1ccccc1Oc1cc(F)c(-c3cccnc3)cc12 | 6.00 to 7.00
* CC(C)(C)C#Cc1cnc2c(c1)[C@]1(COC(N)=N1)c1cc(-c3cnccn3)ccc1O2 | > 7.00
* COc1ccc2c(c1)[C@]1(COC(N)=N1)c1cc(-c3cccc4cnccc34)ccc1O2 | 6.00 to 7.00

Req: Give a short answer stating reported pIC50 for NC1=N[C@]2(CO1)c1ccccc1Oc1ccc(C(=O)NC3CCCCC3)cc12 .
Resp: < 5.30
